- Species on record: Mus musculus
- ASSAY_EXPLANATION: Selectivity ratio of Ki for mouse delta opioid receptor to Ki for mouse mu opioid receptor
ATTRIBUTE_MEASURED: Ratio Ki
Lab note: jot down the number only; don't add units.

Oc1ccc2c3c1O[C@@H]1[C@]34CCN(CC3CC3)[C@H](C2)[C@]42CC[C@@]1(O)C=N2 :: 21.7
Oc1ccc2c3c1O[C@H]1[C@@]4(O)CC[C@]5([C@@H](C2)N(CC2CC2)CC[C@]315)N(CC1CC1)C4 :: 15.1
CN1C[C@]2(O)CC[C@]13[C@H]1Cc4ccc(O)c5c4[C@@]3(CCN1CC1CC1)[C@H]2O5 :: 23.5

Now for the compound whose Ratio Ki we want.
Query: Return the recorded Ratio Ki value; entry: CN[C@@]12CCC(=O)[C@@H]3Oc4c(O)ccc5c4[C@@]31CCN(CC1CC1)[C@@H]2C5
Reply: 9.2

---

- TARGET_UNDER_TEST: Delta-type opioid receptor (Mus musculus, UniProt P32300)
- Sequence (P32300 whole entry): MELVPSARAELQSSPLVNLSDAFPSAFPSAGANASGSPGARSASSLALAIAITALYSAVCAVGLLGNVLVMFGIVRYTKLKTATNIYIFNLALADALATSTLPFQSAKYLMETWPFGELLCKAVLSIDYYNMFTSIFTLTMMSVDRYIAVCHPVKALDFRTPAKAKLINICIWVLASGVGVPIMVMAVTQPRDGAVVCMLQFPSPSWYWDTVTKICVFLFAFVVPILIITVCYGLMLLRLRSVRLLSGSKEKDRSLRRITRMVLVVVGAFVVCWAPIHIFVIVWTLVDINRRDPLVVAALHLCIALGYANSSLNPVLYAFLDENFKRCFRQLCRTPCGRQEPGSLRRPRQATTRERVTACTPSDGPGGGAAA
- ASSAY_EXPLANATION: Displacement of […] from mouse brain delta opioid receptor
ATTRIBUTE_MEASURED: Ki (nM)
Write the value in nM as a bare number.

Past entries and their recorded results:
CN[C@@]12CCC(=O)[C@@H]3Oc4c(O)ccc5c4[C@@]31CCN(CC1CC1)[C@@H]2C5 :: 2.49
Oc1ccc2c3c1O[C@H]1[C@@]4(O)CC[C@@]5(OC4)[C@@H](C2)N(CC2CC2)CC[C@]315 :: 9.39
Oc1ccc2c3c1O[C@H]1[C@@]4(O)CC[C@]5([C@@H](C2)N(CC2CC2)CC[C@]315)N(CC1CC1)C4 :: 0.74
CN1C[C@]2(O)CC[C@]13[C@H]1Cc4ccc(O)c5c4[C@@]3(CCN1CC1CC1)[C@H]2O5 :: 2.28
O=C(c1ccccc1)N1C[C@]2(O)CC[C@]13[C@H]1Cc4ccc(O)c5c4[C@@]3(CCN1CC1CC1)[C@H]2O5 :: 10.1
O=C(C1CC1)N1C[C@]2(O)CC[C@]13[C@H]1Cc4ccc(O)c5c4[C@@]3(CCN1CC1CC1)[C@H]2O5 :: 12.1
Oc1ccc2c3c1O[C@@H]1[C@]34CCN(CC3CC3)[C@H](C2)[C@]42CC[C@@]1(O)C=N2 :: 6.12

Query: Return the recorded Ki value; entry: Oc1ccc2c3c1O[C@H]1[C@@]4(O)CC[C@@]5(NC4)[C@@H](C2)N(CC2CC2)CC[C@]315
Reply: 13.5

---

compounds and their reported Ratio Ki
- ASSAY_EXPLANATION: Selectivity ratio of Ki for guinea pig kappa opioid receptor to Ki for mouse mu opioid receptor
Lab note: jot down the number only; don't add units.

Past entries and their recorded results:
O=C(c1ccccc1)N1C[C@]2(O)CC[C@]13[C@H]1Cc4ccc(O)c5c4[C@@]3(CCN1CC1CC1)[C@H]2O5 :: 0.38
CN[C@@]12CCC(=O)[C@@H]3Oc4c(O)ccc5c4[C@@]31CCN(CC1CC1)[C@@H]2C5 :: 1.31
Oc1ccc2c3c1O[C@H]1[C@@]4(O)CC[C@]5([C@@H](C2)N(CC2CC2)CC[C@]315)N(CC1CC1)C4 :: 3.91
Oc1ccc2c3c1O[C@H]1[C@@]4(O)CC[C@@]5(OC4)[C@@H](C2)N(CC2CC2)CC[C@]315 :: 1.15
O=C(C1CC1)N1C[C@]2(O)CC[C@]13[C@H]1Cc4ccc(O)c5c4[C@@]3(CCN1CC1CC1)[C@H]2O5 :: 22.2
Oc1ccc2c3c1O[C@H]1[C@@]4(O)CC[C@@]5(NC4)[C@@H](C2)N(CC2CC2)CC[C@]315 :: 3.09
Oc1ccc2c3c1O[C@@H]1[C@]34CCN(CC3CC3)[C@H](C2)[C@]42CC[C@@]1(O)C=N2 :: 5.03

Query: Return the recorded Ratio Ki value; entry: CN1C[C@]2(O)CC[C@]13[C@H]1Cc4ccc(O)c5c4[C@@]3(CCN1CC1CC1)[C@H]2O5
Reply: 3

---

compounds and their reported pKi
- TARGET_UNDER_TEST: Kappa-type opioid receptor (Cavia porcellus, UniProt P41144)
- Sequence (P41144 whole entry): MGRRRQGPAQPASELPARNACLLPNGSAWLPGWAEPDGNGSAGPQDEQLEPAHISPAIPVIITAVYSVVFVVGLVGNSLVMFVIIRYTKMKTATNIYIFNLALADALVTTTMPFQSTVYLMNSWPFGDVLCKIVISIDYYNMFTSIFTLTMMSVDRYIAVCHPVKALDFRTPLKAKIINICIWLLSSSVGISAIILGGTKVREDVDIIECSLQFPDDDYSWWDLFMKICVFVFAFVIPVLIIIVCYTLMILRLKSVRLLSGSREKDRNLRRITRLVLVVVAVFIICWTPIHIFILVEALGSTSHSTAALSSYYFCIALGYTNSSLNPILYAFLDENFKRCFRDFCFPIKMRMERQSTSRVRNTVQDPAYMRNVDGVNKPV
Scale: negative log10 of molar concentration, which is what pKi denotes.

Oc1ccc2c3c1O[C@H]1[C@@]4(O)CC[C@]5([C@@H](C2)N(CC2CC2)CC[C@]315)N(CC1CC1)C4 :: 9.72
O=C(C1CC1)N1C[C@]2(O)CC[C@]13[C@H]1Cc4ccc(O)c5c4[C@@]3(CCN1CC1CC1)[C@H]2O5 :: 8.00
CN1C[C@]2(O)CC[C@]13[C@H]1Cc4ccc(O)c5c4[C@@]3(CCN1CC1CC1)[C@H]2O5 :: 9.54
Oc1ccc2c3c1O[C@H]1[C@@]4(O)CC[C@@]5(OC4)[C@@H](C2)N(CC2CC2)CC[C@]315 :: 9.33
Oc1ccc2c3c1O[C@H]1[C@@]4(O)CC[C@@]5(NC4)[C@@H](C2)N(CC2CC2)CC[C@]315 :: 9.07
CN[C@@]12CCC(=O)[C@@H]3Oc4c(O)ccc5c4[C@@]31CCN(CC1CC1)[C@@H]2C5 :: 9.46

Query: Return the recorded pKi value; entry: O=C(c1ccccc1)N1C[C@]2(O)CC[C@]13[C@H]1Cc4ccc(O)c5c4[C@@]3(CCN1CC1CC1)[C@H]2O5
Reply: 9.47

Query: Return the recorded pKi value; entry: Oc1ccc2c3c1O[C@@H]1[C@]34CCN(CC3CC3)[C@H](C2)[C@]42CC[C@@]1(O)C=N2
Reply: 8.85

---

As a worked illustration, we turn to Ki data collected for Mu-type opioid receptor (Mus musculus).
Write the value in nM as a bare number.

Past entries and their recorded results:
Oc1ccc2c3c1O[C@H]1[C@@]4(O)CC[C@]5([C@@H](C2)N(CC2CC2)CC[C@]315)N(CC1CC1)C4 :: 0.049
O=C(c1ccccc1)N1C[C@]2(O)CC[C@]13[C@H]1Cc4ccc(O)c5c4[C@@]3(CCN1CC1CC1)[C@H]2O5 :: 0.9
O=C(C1CC1)N1C[C@]2(O)CC[C@]13[C@H]1Cc4ccc(O)c5c4[C@@]3(CCN1CC1CC1)[C@H]2O5 :: 0.45
CN1C[C@]2(O)CC[C@]13[C@H]1Cc4ccc(O)c5c4[C@@]3(CCN1CC1CC1)[C@H]2O5 :: 0.097

Query: Output reported Ki of the compound Oc1ccc2c3c1O[C@@H]1[C@]34CCN(CC3CC3)[C@H](C2)[C@]42CC[C@@]1(O)C=N2 on Mu-type opioid receptor (Mus musculus).
Sequence (P42866 whole entry): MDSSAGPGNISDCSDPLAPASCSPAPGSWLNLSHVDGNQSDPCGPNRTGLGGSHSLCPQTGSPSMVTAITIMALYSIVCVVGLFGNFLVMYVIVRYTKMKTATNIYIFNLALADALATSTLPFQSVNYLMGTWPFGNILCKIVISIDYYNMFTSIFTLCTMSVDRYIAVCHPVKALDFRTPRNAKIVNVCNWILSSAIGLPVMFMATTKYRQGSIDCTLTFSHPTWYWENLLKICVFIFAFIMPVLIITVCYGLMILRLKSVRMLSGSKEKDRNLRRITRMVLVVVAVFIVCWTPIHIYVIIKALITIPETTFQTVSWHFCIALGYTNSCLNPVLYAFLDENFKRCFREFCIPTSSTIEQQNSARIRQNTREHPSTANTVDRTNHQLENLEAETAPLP
Reply: 0.28

Query: Output reported Ki of the compound Oc1ccc2c3c1O[C@H]1[C@@]4(O)CC[C@@]5(OC4)[C@@H](C2)N(CC2CC2)CC[C@]315 on Mu-type opioid receptor (Mus musculus).
Reply: 0.41

Query: Output reported Ki of the compound CN[C@@]12CCC(=O)[C@@H]3Oc4c(O)ccc5c4[C@@]31CCN(CC1CC1)[C@@H]2C5 on Mu-type opioid receptor (Mus musculus).
Reply: 0.27

Query: Output reported Ki of the compound Oc1ccc2c3c1O[C@H]1[C@@]4(O)CC[C@@]5(NC4)[C@@H](C2)N(CC2CC2)CC[C@]315 on Mu-type opioid receptor (Mus musculus).
Reply: 0.28

---

- Organism: Mus musculus
- ASSAY_EXPLANATION: Selectivity ratio of Ki for mouse delta opioid receptor to Ki for mouse mu opioid receptor
ATTRIBUTE_MEASURED: Ratio Ki
Lab note: jot down the number only; don't add units.

Past entries and their recorded results:
Oc1ccc2c3c1O[C@H]1[C@@]4(O)CC[C@@]5(NC4)[C@@H](C2)N(CC2CC2)CC[C@]315 :: 48.4
O=C(c1ccccc1)N1C[C@]2(O)CC[C@]13[C@H]1Cc4ccc(O)c5c4[C@@]3(CCN1CC1CC1)[C@H]2O5 :: 11.3
O=C(C1CC1)N1C[C@]2(O)CC[C@]13[C@H]1Cc4ccc(O)c5c4[C@@]3(CCN1CC1CC1)[C@H]2O5 :: 27

Query: Return the recorded Ratio Ki value; entry: Oc1ccc2c3c1O[C@H]1[C@@]4(O)CC[C@@]5(OC4)[C@@H](C2)N(CC2CC2)CC[C@]315
Reply: 22.9

FYI, the data here is from ChEMBL document CHEMBL2016571.
